B1: PI4K2A (parent)
chain: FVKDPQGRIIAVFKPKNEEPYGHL

# Variants of: B1
# assay: protein stability index of a GFP-peptide fusion (GPS, HEK-293T) (PSI 1-6); higher = more stable;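 note: lentivirally expressed fusions sorted by FACS into six bins by GFP to DsRed ratio, PSI derived from sequencing read proportions per bin multiplied by bin number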
# experimentalContext: c terminus: a fixed tail appended

{"columns": ["mutantCode", "protein stability index"],
 "data": [
  ["G7M", 3.42],
  ["K14S", 3.13],
  ["A11P", 3.18],
  ["K3A", 1.57],
  ["G7P", 1.81]
]}
